The reported measurements were obtained from patent US20240269298A1.

# Test: Pharmacokinetic test in mice
# Format: in vivo
# Measurement Context: male, ICR, mouse, po, administration i.g. (10 mg/kg), plasma
Value Kind: half-life (h)

P. COc1cc(N2CCN(CC3CCN(c4ccc5c(c4)C(=O)N(C4CCC(=O)NC4=O)C5=O)CC3)CC2)c(-c2cnn(C)c2)cc1Nc1ncc(Br)c(Nc2ccc(-c3ccccc3)cc2P(C)(C)=O)n1 (stereo not shown) [Compound 77]
Q. COc1cc(N2CCN(CC3CCN(c4ccc5c(c4)C(=O)N(C4CCC(=O)NC4=O)C5=O)C3)CC2)c(-c2cnn(C)c2)cc1Nc1ncc(Br)c(Nc2ccc(-c3ccccc3)cc2P(C)(C)=O)n1 (stereo not shown) [Compound 67]
Sorting ascending by half-life, which comes first: P or Q ? Which one? Tell me its label. Q

A. COc1cc(N2CCC3(CCN(c4ccc5c(c4)C(=O)N(C4CCC(=O)NC4=O)C5=O)CC3)CC2)c(-c2cnn(C)c2)cc1Nc1ncc(Br)c(Nc2ccc(F)cc2P(C)(C)=O)n1 (stereo not shown) [Compound 163]
B. COc1cc(N2CCN(c3ccc4c(c3)C(=O)N(C3CCC(=O)NC3=O)C4=O)CC2)c(-c2cnn(C)c2)cc1Nc1ncc(Br)c(Nc2ccc(-c3ccccc3)cc2P(C)(C)=O)n1 (stereo not shown) [Compound 80]
When A and B are compared, which has the higher number for half-life? Which one? Tell me its label. B
(B: 10.4 h, A: 6.68 h)
